Would you mind telling me the reported Kd of each entry?
Molecular target: T1, Recombinant TNFα containing an N-terminal 13-aa ybbR tag (human, UniProt P01375 77-233, biotin at the ybbR tag in the ELISA assays)
T1 construct: Expressed in E. coli; Same construct used unlabelled (FA) and biotinylated on NeutrAvidin (ELISA); also called tumor necrosis factor-alpha; human TNFα; not shown: N-terminal 13-aa ybbR tag
T1 sequence (P01375 77-233): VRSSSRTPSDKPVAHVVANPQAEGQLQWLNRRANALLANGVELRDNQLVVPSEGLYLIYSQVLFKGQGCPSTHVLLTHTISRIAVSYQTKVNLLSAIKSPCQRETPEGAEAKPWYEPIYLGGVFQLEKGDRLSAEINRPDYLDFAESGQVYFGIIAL
Assay: FA, FITC-peptide + TNFα titration
Positions of bridges follow the written chain, without caps; N, C: chain ends. Non-standard residues stand in square brackets, D forms with d. Primed or numbered codes have the meaning given here. No end group written: not given here. *: point of attachment. FITC = O=C1OC2(c3ccc(O)cc3Oc3cc(O)ccc32)c2ccc(NC(=S)*)cc21; trimesoyl″ = benzene-1,3,5-tricarbonyl scaffold; FITC′ = fluorescein isothiocyanate, on Lys NZ; Phg = N[C@H](C(=O)O)c1ccccc1; Nle = CCCC[C@H](N)C(=O)O; Orn = NCCC[C@H](N)C(=O)O; Dap = NC[C@H](N)C(=O)O
Give bare numbers, in nM.

{"Binder": "VY[dS]KY[dF]G[dK]H[Dap]K(FITC′)-NH2 (linker (positions not given here) via trimesoyl″; not fully specified (N-terminus, bridges)) [C1-13]", "Quantity name": "Kd", "Observed value": 2400}
{"Binder": "[Phg]Y[dA]KY[dF]G[dK]H[Dap]NNNK(FITC′)-NH2 (bridge (positions not given here) via trimesoyl″; not fully specified (N-terminus, bridges); also: feature: K4 labeled with FITC, also called C1-NNNK(FITC); NNNK-tagged anticachexin C1) [Asn-Asn-Asn-Lys(FITC)-labeled anticachexin C1]", "Quantity name": "Kd", "Observed value": 800}
{"Binder": "[Nle]Y[dS]KW[dH]S[dK]H[Dap]K(FITC)-NH2 (linker N-4-10 via trimesoyl″) [C1-45]", "Quantity name": "Kd", "Observed value": 420}

Now, please, on to the next binder.
Q: // query Kd value for entry [Nle]Y[dS][Orn]Y[dF]G[dK]H[Dap]K(FITC′)-NH2 (linker (positions not given here) via trimesoyl″; not fully specified (N-terminus, bridges)) [C1-20]
Ans: 3500

Origin of the recorded values: patent US10913773B2
